Value source: ChEMBL document CHEMBL1201862

system: SK-MEL-5; test: NCI tumour cell line growth inhibition, 48 h
Active and inactive are the calls of the source. No stated cut-off is given here; in the data, active = GI50 up to about 1.1 µM and inactive = higher.
QUANTITY_MEASURED: GI50

Look over these answered cases.
- COMPOUND: "NCC(=O)NC(CO)C(=O)O (stereo not given)"
  GI50: "> 100 µM (inactive)"
- COMPOUND: "COc1ccc2c(c1)CC1c3c(cc4c(c3-2)OCO4)CCN1C (stereo not given)"
  GI50: "16.9 µM (inactive)"

Exercise: Give measured GI50 for `O=C(OC1=CCN(Br)C1=O)C1=C(O)C(=O)N(Br)C1` (SK-MEL-5).
Solution: 17.2 µM (inactive)

Exercise: Give measured GI50 for CC1(C)C[C@H]2C=C(C=O)[C@]34C[C@]3(C(=O)OC4O)[C@H]2C1 (stereo not given in full) (SK-MEL-5).
Solution: 1.63 µM (inactive)

====

tested on: SW-620; assay: NCI tumour cell line growth inhibition, 48 h
Calls of active or inactive are those of the source. Rule as the data show it: active = GI50 up to about 1.1 µM and inactive = higher. Square brackets hold non-standard residues; d marks the D form. Peptide text beside a SMILES is read from it. pGlu = O=C1CC[CH](C(=O)O)N1
Hi there, use one of these labels in your reply, thanks! active, inactive

- COMPOUND: "CNC(=S)NN=C1NCCCCN1"
  SUBJECT_OF_TEST: "SW-620"
  CATEGORY_LABEL: "inactive"
- COMPOUND: "COc1ccc(CC2c3cc(OC)c(OC)c(OC)c3CC[N+]2(C)C)cc1Oc1ccc(CC2c3cc4c(c(OC)c3CC[N+]2(C)C)OCO4)cc1 (configuration not stated)"
  SUBJECT_OF_TEST: "SW-620"
  CATEGORY_LABEL: "inactive"
- COMPOUND: "COC[C@H](C)/N=C/N1CCc2ccccc2C1(Cc1ccccc1)Cc1ccccc1"
  SUBJECT_OF_TEST: "SW-620"
  CATEGORY_LABEL: "inactive"

Exercise: Hi, sorry to bother you, what did the test record for CCC1CCc2c(OC)ccc(OCC(=O)O)c2C1=O (configuration not stated) ?
Solution: inactive

Exercise: Hi, sorry to bother you, what did the test record for `OC1CSCCSCCCSCCSC1` ?
Solution: inactive

Exercise: Hi, sorry to bother you, what did the test record for Cc1ccc(C2NC(=O)c3ccccc3N2)s1 (configuration not stated) ?
Solution: inactive

Exercise: Hi, sorry to bother you, what did the test record for `Cc1[nH]nc(-c2ccon2)c1N=O` ?
Solution: inactive

Exercise: Hi, sorry to bother you, what did the test record for `S=C(S)NCCN1CCNCC1` ?
Solution: inactive

Exercise: Hi, sorry to bother you, what did the test record for `CCCCCC/C=C\CCCCCCCCCC1=CC(=O)C=C(OC)C1=O` ?
Solution: inactive

Exercise: Hi, sorry to bother you, what did the test record for CC(NC(=O)C(Cc1c[nH]cn1)NC(=O)C1CCC(=O)N1)C(N)=O (stereo not drawn) ([pGlu]-His-Ala-NH2; configuration not given here) ?
Solution: inactive

Exercise: Hi, sorry to bother you, what did the test record for CC(C(=O)COCc1ccccc1)P1(=O)OC(C)(C)CN1C(C)(C)C (configuration not stated) ?
Solution: inactive

Exercise: Hi, sorry to bother you, what did the test record for NC(=O)C1N=NSC1NC(=O)c1ccc([N+](=O)[O-])cc1 (configuration not stated) ?
Solution: inactive

Exercise: Hi, sorry to bother you, what did the test record for `NNC(=O)c1ccccc1Nc1ccccc1C(=O)NN` ?
Solution: inactive

Exercise: Hi, sorry to bother you, what did the test record for `O=C(Cc1ccccc1)NN1C(=O)/C(=C\c2ccc(O)cc2)S/C1=N\c1ccccc1` ?
Solution: inactive

Exercise: Hi, sorry to bother you, what did the test record for `CCN(CC)CCc1c2c(nc3ccccc13)C(=O)c1cccnc1C2=O` ?
Solution: active

Exercise: Hi, sorry to bother you, what did the test record for N#CCC(=O)N/N=C1/C(=O)N(c2ccc(Cl)cc2)C(=O)C(=O)C1c1nc2ccccc2s1 (configuration not stated) ?
Solution: inactive

Exercise: Hi, sorry to bother you, what did the test record for O=C1C2c3[nH]c4ccccc4c3[C@@H]3CCCCCCCCCCC3C2C(=O)N1c1ccccc1 (some centres not stated) ?
Solution: inactive

Exercise: Hi, sorry to bother you, what did the test record for COc1cc2oc(-c3ccc(O)cc3)cc(=O)c2c(O)c1C1OC(CO)C(O)C(O)C1O (configuration not stated) ?
Solution: inactive

Exercise: Hi, sorry to bother you, what did the test record for C=CCOCC1C2CCC3(OCCO3)C21 (configuration not stated) ?
Solution: inactive

Exercise: Hi, sorry to bother you, what did the test record for `COc1ccc(C=O)cc1O[Si](C)(C)C(C)(C)C` ?
Solution: inactive

Exercise: Hi, sorry to bother you, what did the test record for `CC1=CC(=O)/C(=C/NC(=S)NCCc2ccccc2)C(=O)O1` ?
Solution: inactive

Exercise: Hi, sorry to bother you, what did the test record for `O=C(O)CSc1nnc(COc2ccc(Cl)cc2)n1-c1ccccc1` ?
Solution: inactive
